Every entry's value here was drawn from ChEMBL document CHEMBL4359893.

Kindly state selectivity ratio for each of the entries shown.
test: Selectivity index, ratio of CC50 for African green monkey Vero cells to IC50 for intracellular amastigote stage of luciferase expressing Trypanosoma cruzi Dm28c infected in Vero cells; assay type: toxicity, cell-based; details: read-out: Ratio CC50/IC50

Solved cases below.
Nc1c(C2=NCCN2)cnn1-c1cc(Cl)cc(Cl)c1 = 15.6
O=C(Cn1ccnc1[N+](=O)[O-])NCc1ccccc1 [BENZNIDAZOLE] = > 263
Nc1c(C2=NCCN2)cnn1-c1cccc(Cl)c1 = > 24.3
Nc1c(C2=NCCN2)cnn1-c1ccccc1 = > 5.9
Nc1c(C2=NCCN2)cnn1-c1ccc(Br)cc1 = > 5.9

Please go through the list and note selectivity ratio for each compound.
1. COc1ccc(-n2ncc(C3=NCCN3)c2N)cc1
2. Nc1c(C2=NCCN2)cnn1-c1ccc(Cl)c(Cl)c1
3. Nc1c(C2=NCCN2)cnn1-c1cccc(Br)c1

a:
1. > 7.9
2. 17.9
3. 5.2
